Test system: OVCAR-3
Test: NCI tumour cell line growth inhibition, 48 h
Structures can show the parent of a compound that is named as a salt. Active and inactive are the calls of the source. Rule as the data show it: active = GI50 up to about 1.1 µM and inactive = higher.
Classes used: active, inactive

compound	label value
COc1ccc(C2=NN(C(=O)COc3ccc(Cl)cc3)C(O)(c3ccc(Cl)cc3)C2)cc1 (stereo not drawn)	inactive
BrC1=CC=C2NC=CC3=CC=NC1C32 (stereo not drawn)	inactive
CN(CCNCc1cn(C)c2c1ccc1ccccc12)CCNCc1cn(C)c2c1ccc1ccccc12	inactive
O=C1NC(c2cccc3ccccc23)Nc2ccc(Cl)cc21 (stereo not drawn)	active
COC(=O)C1=C(O)c2cc(OC)c(OC)cc2C(c2ccc(OC)c(OC)c2)C1 (stereo not drawn)	inactive
CN(C)CCOC(c1ccccc1)c1ccccc1 [DIPHENHYDRAMINE HYDROCHLORIDE]	inactive
NCCNC(=S)S	inactive
CN(C)c1c(C2CC(O)C(CO)O2)c(=O)c1=O (stereo not drawn)	inactive

====

Tested on: K562
Experiment: NCI tumour cell line growth inhibition, 48 h
Activity calls are given as the source filed them. No stated cut-off is given here; in the data, active = GI50 up to about 1.1 µM and inactive = higher.
measure: GI50

compound	experimental result
CC(C)Cn1cnc2c(NCC(C)O)nc3ccccc3c21 (configuration not stated)	61.4 µM (inactive)
CNS(=O)(=O)NN(C)S(=O)(=O)c1ccc(OC)cc1	> 100 µM (inactive)
O=c1[nH]c2nc3ccccc3c(=O)n2/c1=C/c1cccs1	> 100 µM (inactive)
O=C1NC(c2cccc3ccccc23)Nc2ccc(Cl)cc21 (configuration not stated)	< 0.0001 µM (active)
COC(=O)C1CC(C(=O)OC)c2nc3cc([N+](=O)[O-])ccc3nc21 (configuration not stated)	14.7 µM (inactive)
O=C(Cc1ccccc1)NN1C(=O)C(Cl)C1c1ccc(O)cc1 (configuration not stated)	> 100 µM (inactive)
CCOC(=O)N/N=C(\Cc1ccc([N+](=O)[O-])cc1)OCC	> 100 µM (inactive)

====

System: SK-MEL-5
Test: NCI tumour cell line growth inhibition, 48 h
Activity calls are given as the source filed them. Rule as the data show it: active = GI50 up to about 1.1 µM and inactive = higher.

compound	GI50
COc1ccc2c(=O)c3ccoc3n(CC=C(C)C)c2c1	32 µM (inactive)
CC(C)N(C(C)C)S(=O)(=O)C[C@]12CC[C@H](CC13OCC(CS(=O)(=O)c1ccccc1)O3)C2(C)C (some centres not stated)	29.4 µM (inactive)
CC#C[I+]c1ccccc1	23.4 µM (inactive)
O=C(CN1C(=O)c2ccccc2C1=O)NC1(C(=O)O)CCCC1	> 100 µM (inactive)
CC1(C)O[C@@H]2C[C@H]3[C@@H]4C[C@H](F)C5=CC(=O)C=C[C@]5(C)[C@@]4(F)[C@@H](O)C[C@]3(C)[C@]2(C(=O)CO)O1 [FLUOCINOLONE ACETONIDE]	> 100 µM (inactive)
COc1cc(/C=C2\C(=O)N(Cc3ccccc3)C(c3ccccc3)S2(=O)=O)cc(OC)c1OC (configuration not stated)	12 µM (inactive)
O=C(NCCCCCCCCCCCCNC(=O)c1cccc2ccccc12)c1cccc2ccccc12	> 100 µM (inactive)
CC(C)(C)[Si](C)(C)OCC#C[C@@]1(O)CCCCC1CC(Sc1ccccc1)Sc1ccccc1 (some centres not stated)	15.7 µM (inactive)
O=c1cnn(C2OC(CO)C(O)C2O)c(=S)[nH]1 (configuration not stated)	> 55.5 µM (inactive)
COC1=CC(=O)C2C(C1=O)C(c1ccc(Cl)cc1)[C@@H]2C (some centres not stated)	19.5 µM (inactive)
CC1=NN(C(=O)CC(=O)Nc2ccccc2)C(=O)C1/N=N/c1ccc(S(N)(=O)=O)cc1 (configuration not stated)	36.4 µM (inactive)
CCSC1=N/C(=C\c2ccco2)C(Nc2ccc(C)cc2)=N1	> 100 µM (inactive)
O=C(c1ccccc1)C(c1ccccc1)C1(O)C(=O)Nc2c(Cl)ccc(Cl)c21 (configuration not stated)	18.2 µM (inactive)
Cc1cccc(Nc2nc(NNC(=O)Cc3ccccc3)nc(NNC(=O)c3ccncc3)n2)c1	> 10 µM (inactive)
C[N+](C)(C)CC1CCCC/C1=N\OC(=O)c1ccccc1 (configuration not stated)	> 100 µM (inactive)
O=C(CCC1CCCCN1)Nc1ccc2c(c1)C(=O)c1ccc(NC(=O)CCN3CCCCC3)cc1C2=O (configuration not stated)	1.4 µM (inactive)
CN1CCN([C@H]2C[C@H]3[C@@H]4CC=C5C[C@@H](N6CCCC6)CC[C@]5(C)[C@H]4CC[C@]3(C)[C@H]2O)CC1	18.8 µM (inactive)
CC(C#N)Nc1ccc(Oc2ccc(C(C)(C)c3ccc(Oc4ccc(NC(C)C#N)cc4)cc3)cc2)cc1 (configuration not stated)	50.6 µM (inactive)
COc1ccc(C2OC(=O)c3c2ccc2ccccc32)c(C)c1 (configuration not stated)	1.77 µM (inactive)
O=C1C(Cl)C(c2cc3cc(Br)ccc3nc2Cl)N1c1ccc(Cl)cc1 (configuration not stated)	3.21 µM (inactive)
O=C(/C=C/c1ccc(Cl)cc1)c1nc2ccccc2[nH]1	40.2 µM (inactive)
CNC(=O)OCC1=C(COC(=O)NC)C(C)N(c2ccccc2)C1 (configuration not stated)	17.1 µM (inactive)
CC(=O)NC(Cc1c[nH]c2ccccc12)C(=O)O (configuration not stated)	> 100 µM (inactive)
CC12CCCC(O)C1CCC1=CC3(CCC12)SCCS3 (configuration not stated)	> 10 µM (inactive)
Clc1ccc(Nc2nnc(CNc3ccc(-c4nnc(Nc5ccc(Cl)cc5)o4)cc3)o2)cc1	15.9 µM (inactive)
Cc1ccc(NC2=NCCO2)c2c1CCC2	17.5 µM (inactive)
CC(O)(C(=O)N(O)c1ccc(Cl)cc1)c1ccc(Cl)cc1 (configuration not stated)	18.7 µM (inactive)
CC(C)CC1c2[nH]c3ccccc3c2C[C@H]2C(=O)NC(CCCCNC(=O)OC(C)(C)C)C(=O)N12 (some centres not stated)	33.2 µM (inactive)
CC(CCCCNC(=O)OC(C)(C)C)NC(=O)NC(C)CCCCNC(=O)OC(C)(C)C (configuration not stated)	30 µM (inactive)
O=C1c2ccccc2C(=O)c2c1ccc1c3ccccc3n(Cc3ccccc3)c21	> 100 µM (inactive)
CCCCCC#CCOC(=O)C(=[N+]=[N-])P(=O)(c1ccccc1)c1ccccc1	> 10 µM (inactive)
CC1(Sc2ccccc2)CN(Cc2ccccc2)C1=O (configuration not stated)	> 100 µM (inactive)

====

Tested on: UO-31
Experiment: NCI tumour cell line growth inhibition, 48 h
Active and inactive are the calls of the source. No stated cut-off is given here; in the data, active = GI50 up to about 1.1 µM and inactive = higher.
Outcome codes: active, inactive

compound	label value
C=C(C)C1CCC2(C)CC1c1c(c(C)cc3c1[nH]c1ccccc13)O2 (stereo unspecified)	inactive
COc1ccc(/C=C2\C[C@H]3[C@@H]4CC=C5C[C@@H](O)CC[C@]5(C)[C@H]4CC[C@]3(C)\C2=N\O)cc1	inactive
CCOC(=O)CC1Nc2ccccc2C12CCc1c([nH]c3ccccc13)C2C(=O)OCC (stereo unspecified)	inactive
COC(=O)C(NC(=O)CSc1nnc(COc2ccc(Cl)cc2)n1-c1ccccc1)C(C)C (stereo unspecified)	inactive
O=C1c2ccccc2/C=C\C(c2ccccc2)=N/N1c1ccccc1Cl	inactive
COC(=O)[C@@H]1[C@H]2CC[C@]3(C)[C@@H](OC(C)=O)CC[C@H]3[C@@H]2CC[C@H]1C1(C)SCCS1	inactive
Cc1ccc(S(=O)(=O)NN=C2C(C)CC(C(C)(C)C)CC2C)cc1 (stereo unspecified)	inactive
CCNC(=S)Nc1c(C#N)c2n(c1C(=O)OCC)CCCCC2	inactive
CC(=O)NC1C(OC(C)C(=O)NC(C(=O)NC(CCC(=O)NCCCNC2c3ccccc3Nc3cccc([N+](=O)[O-])c32)C(N)=O)C(C)C)C(O)C(CO)OC1(C)OCc1ccccc1 (stereo unspecified)	inactive
CC(=O)[C@H]1[C@H](O)C[C@@]2(C)[C@@H]3CCc4cc(O)c(OC5OC(CO)C(O)C(O)C5O)cc4C3(C)C(=O)C[C@]12C (stereo partly specified)	inactive
O=C1C(Cl)C(c2cc3cc(Br)ccc3nc2Cl)N1c1ccc(Cl)cc1 (stereo unspecified)	active

====

System: HCC 2998
Experiment: NCI tumour cell line growth inhibition, 48 h
Activity calls are given as the source filed them. Cut-off read from the data, not from the text of the source: active = GI50 up to about 1.1 µM and inactive = higher. Where a SMILES comes first, the peptide text is derived from it. The star is where a group is joined. Boc = CC(C)(C)OC(=O)*
Outcomes: t = active, f = inactive

compound	label value
CC(C)(C)C1CCC2c3c([nH]c4ccccc34)C3C(=O)N(c4ccc(Br)cc4)C(=O)C3C2C1 (centres undefined)	t
Cc1ccc(/N=N/C(=N/NC(=O)c2cc(Cl)ccc2O)c2ccc(N(CCC#N)CCC#N)cc2C)cc1	f
CCC1(CC)C(=O)N(C(=O)c2cc(OC)c(OC)c(OC)c2)N(C(=O)c2cc(OC)c(OC)c(OC)c2)C1=O	f
O=C1/C(=C\c2ccc([N+](=O)[O-])cc2)CS(=O)(=O)C/C1=C/c1ccc([N+](=O)[O-])cc1	t
C/C([O-])=C(/c1nc(-c2ccc([N+](=O)[O-])o2)no1)[n+]1cc(C)ccc1C	f
CC(=O)OCC1OC(N2C(c3ccccc3)=CC(c3cccs3)C(C#N)=C2S)C(OC(C)=O)C(OC(C)=O)C1OC(C)=O (centres undefined)	f
CC(=O)c1cc2c(s1)C(=O)c1sccc1C2=O	t
CC1=NC(=Cc2cc(Br)cc(Br)c2)C(=O)N1n1c(-c2ccccc2)nc2ccccc2c1=O	f
COc1cc2c3c(n(C)c(=O)c2cc1OC)-c1cc2c(cc1/C3=C\CCCCl)OCO2	f
COc1ccc(C2=NN(C(=O)COc3ccc(Cl)cc3)C(O)(c3ccc(Cl)cc3)C2)cc1 (centres undefined)	f
COc1cc(/C=C2\C(=O)N(Cc3ccccc3)C(c3ccccc3)S2(=O)=O)cc(OC)c1OC (centres undefined)	f
CN(C)c1c(C2CC(O)C(CO)O2)c(=O)c1=O (centres undefined)	f
NCCCN(CCCN)CCc1cn(C(=O)c2ccccc2)cn1	f
O=c1cc(-c2ccccc2)[nH]c2cc(F)c(F)cc12	f
CN(Cc1cnc2nc(N)nc(N)c2n1)c1ccc(C(=O)NCCCC(=O)O)cc1	f
C[n+]1c(-c2ccc(NC(=O)c3ccc(C(=O)Nc4ccc(-c5cn6ccccc6[n+]5C)cc4)cc3)cc2)cn2ccccc21	f
N/C(=N\N=C=C1C(=O)Nc2ccc(F)cc21)NO	f
COc1cc(OCc2ccc3nc(-c4ccccc4)c(Cl)nc3c2)cc(OC)c1OC	f
Sc1nnc(/C=C/c2ccc(Cl)c(Cl)c2)[nH]1	t
Clc1ccccc1-c1nnc2c(-c3ccccc3)nc3ccccc3n12	f
CC1=C(C(=O)OC(C)C)C(c2ccccc2C(F)(F)F)C(C(=O)OC(CO[N+](=O)[O-])CO[N+](=O)[O-])=C(C)N1 (centres undefined)	f
COC(OC)c1cccc2c1C1(O)CCC3(CC21)OCCCCO3 (centres undefined)	f
O=C1C2C3C=C4c5ccccc5N(c5ccccc5)C4([C@@H]2C(=O)N1c1ccc(F)cc1)[C@H]1C(=O)N(c2ccc(F)cc2)C(=O)[C@@H]31 (some centres undefined)	f
CSc1nc2c(ncn2C2OCC(O)C(O)C2O)c(=O)n1C (centres undefined)	f
COc1cc2c(c(OC)c1OC)C(=O)[C@@H]1[C@H]2N1C(=O)NCCCl	f
Cc1ccc(S(=O)(=O)N/N=C2/CC3CCC4CC2CC34)cc1 (centres undefined)	f
COc1ccc(C(=O)/C=C/c2ccc(OCC#N)cc2)cc1	f
COC(=O)CNC(=O)C(Cc1ccccc1)NC(=O)C(CCSC)NC(=O)C(Cc1ccc(O)cc1)NC(=O)OC(C)(C)C (centres undefined) (Boc-YMFG-OMe; configuration not given here)	f
CCOC(=O)c1c(N2CCOCC2)[nH]c(=O)c(C(c2c(O)c(C(=O)OCC)c(N3CCOCC3)[nH]c2=O)C(C)C)c1O	f
C=C1C(=O)OC2C/C(C)=C/CC/C(C)=C/CCC3(COC(C)=O)OC3CC12 (centres undefined)	f
CC1=NN(C(=O)c2ccncc2)C(=O)C1	f
CC(=O)OCC1OC(SC2=NC(=O)CS2)C(OC(C)=O)C(OC(C)=O)C1OC(C)=O (centres undefined)	f
COP(=O)(OC)C(Cc1cn(C(C)=O)c2ccccc12)C(=O)O (centres undefined)	f
CCCc1cc(O)c2c(C)c3[nH]c4ccc(Cl)cc4c3c(C)c2n1	f

Numbers sourced from ChEMBL document CHEMBL1201862.
